Target: KRAS WT (Homo sapiens (Human), UniProt P01116+P62937)
Sequence (P01116-2 other isoform, or with tags, fused parts or gaps): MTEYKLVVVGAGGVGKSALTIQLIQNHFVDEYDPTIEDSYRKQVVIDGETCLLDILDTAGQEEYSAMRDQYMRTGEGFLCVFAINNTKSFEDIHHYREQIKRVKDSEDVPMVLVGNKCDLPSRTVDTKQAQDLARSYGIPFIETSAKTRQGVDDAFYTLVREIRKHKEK
Sequence (P62937 whole entry): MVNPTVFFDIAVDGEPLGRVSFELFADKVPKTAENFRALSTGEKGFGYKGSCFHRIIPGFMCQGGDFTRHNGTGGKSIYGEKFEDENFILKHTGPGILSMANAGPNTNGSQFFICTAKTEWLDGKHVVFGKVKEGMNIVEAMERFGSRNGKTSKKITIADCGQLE
Test: Ras-Raf (BRAF RBD) disruption / FRET / MOA assay, KRAS WT
Assay type: biochemical
Conditions: read-out: IC50* KRAS WT FRET data

compound	test target	IC50
C=CC(=O)N1CCO[C@H]2CN(C(=O)N(C)[C@H](C(=O)N[C@H]3Cc4coc(n4)-c4ccc5c(c4)c(c(-c4cccnc4[C@H](C)OC)n5CC(F)(F)F)CC(C)(C)COC(=O)[C@@H]4CCCN(N4)C3=O)C(C)C)C[C@H]21 (atropisomer, axis not shown) [Example A574]	KRAS WT (Homo sapiens (Human), UniProt P01116+P62937)	1 to 10 µM
C=CC(=O)N1CC[C@H](C(=O)N(C)[C@H](C(=O)N[C@H]2Cc3cc(O)cc(c3)-c3ccc4c(c3)c(c(-c3cnccc3[C@H](C)OC)n4CC)CC(C)(C)COC(=O)[C@@H]3CCCN(N3)C2=O)C(C)C)C1 [Example A112]	KRAS WT (Homo sapiens (Human), UniProt P01116+P62937)	1 to 10 µM
C=CC(=O)N1CC[C@H](C(=O)N(C)[C@H](C(=O)N[C@H]2Cc3csc(n3)-c3ccc4c(c3)c(c(-c3cccnc3COC)n4CC)CC(C)(C)COC(=O)[C@@H]3CCCN(N3)C2=O)C(C)C)C1 [Example A118]	KRAS WT (Homo sapiens (Human), UniProt P01116+P62937)	> 10 µM
CCn1c(-c2cccnc2COC)c2c3cc(ccc31)-c1cc(O)cc(c1)C[C@H](NC(=O)[C@H](C(C)C)N(C)C(=O)[C@H]1CCC(C(=O)/C=C\CN(C)C)C1)C(=O)N1CCC[C@H](N1)C(=O)OCC(C)(C)C2 (stereo partly shown) [Example A164]	KRAS WT (Homo sapiens (Human), UniProt P01116+P62937)	0.1 to 1 µM

###

Parameter IC50: see the listing below.
Target: KRAS WT (Homo sapiens (Human), UniProt P01116+P62937)
Experiment: Ras-Raf (BRAF RBD) disruption / FRET / MOA assay, KRAS WT
Format: biochemical
Conditions: read-out: IC50* KRAS WT FRET data

compound	test target	IC50
C=CC(=O)N1CC[C@H](C(=O)N(C)[C@H](C(=O)N[C@H]2Cc3cc(ccn3)-c3ccc4c(c3)c(c(-c3cccnc3COC)n4CC)CC(C)(C)COC(=O)[C@@H]3CCCN(N3)C2=O)C(C)C)C1 [Example A136]	KRAS WT (Homo sapiens (Human), UniProt P01116+P62937)	> 10 µM
CO[C@@H](C)c1ncccc1-c1c2c3cc(ccc3n1CC(F)(F)F)-c1csc(n1)C[C@H](NC(=O)[C@H](C(C)C)N(C)C(=O)N1C[C@@H]3OCCN(C(=O)/C=C/CF)[C@@H]3C1)C(=O)N1CCC[C@H](N1)C(=O)OCC(C)(C)C2 (atropisomer, axis not shown) [Example A571]	KRAS WT (Homo sapiens (Human), UniProt P01116+P62937)	0.1 to 1 µM

###

Molecular target: KRAS Q61H (Homo sapiens (Human), UniProt P01116+P62937, Q61H)
Sequence (P01116-2 other isoform, or with tags, fused parts or gaps Q61H, one chain of several): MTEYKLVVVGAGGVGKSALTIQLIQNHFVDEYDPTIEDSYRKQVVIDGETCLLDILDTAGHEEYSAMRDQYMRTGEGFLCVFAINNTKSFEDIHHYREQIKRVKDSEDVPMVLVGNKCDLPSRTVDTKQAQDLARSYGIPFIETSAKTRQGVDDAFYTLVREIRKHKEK
Experiment: Ras-Raf (BRAF RBD) disruption / FRET / MOA assay, KRAS Q61H
Format: biochemical
Details: Ras-Raf disruption/FRET/MOA assay; class symbols; read-out: KRAS Q61H FRET data IC50
pIC50: −log10 of the molar value.
readout name: pIC50

compound	test target	readout name	test value
C=CC(=O)N1CC[C@]2(C1)OCN([C@H](C(=O)N[C@H]1Cc3cc(cc(C(F)F)c3)-c3ccc4c(c3)c(c(-c3cccnc3[C@H](C)OC)n4CC)CC(C)(C)COC(=O)[C@@H]3CCCN(N3)C1=O)C(C)C)C2=O (atropisomer, axis not shown)	KRAS Q61H (Homo sapiens (Human), UniProt P01116+P62937, Q61H)	pIC50	7.00 to 8.00
CCn1c(-c2cccnc2[C@H](C)OC)c2c3cc(ccc31)N1CCC[C@@H](C[C@H](NC(=O)[C@H](C(C)C)N(C)C(=O)[C@H]3CCN(C(=O)C#CC(C)(C)N4CCC4)C3)C(=O)N3CCC[C@H](N3)C(=O)OCC(C)(C)C2)C1 (atropisomer, axis not shown)	KRAS Q61H (Homo sapiens (Human), UniProt P01116+P62937, Q61H)	pIC50	< 5.00
C=CS(=O)(=O)N1CCC(C(=O)N(C)[C@H](C(=O)N[C@H]2Cc3cccc(c3)-c3ccc4c(c3)c(c(-c3cncnc3)n4CC)CC(C)(C)COC(=O)[C@@H]3CCCN(N3)C2=O)C(C)C)C1 (single isomer, unassigned)	KRAS Q61H (Homo sapiens (Human), UniProt P01116+P62937, Q61H)	pIC50	< 5.00
CCn1c(-c2cccnc2[C@H](C)OC)c2c3cc(ccc31)-c1csc(n1)C[C@H](NC(=O)[C@H](C(C)C)N(C)C(=O)N1CCC13CN(C(=O)C#CC(C)(C)N(C)C)C3)C(=O)N1CCC[C@H](N1)C(=O)OCC(C)(C)C2 (atropisomer, axis not shown)	KRAS Q61H (Homo sapiens (Human), UniProt P01116+P62937, Q61H)	pIC50	7.00 to 8.00
C=CC(=O)N1CCC2(CC1)CCN(C(=O)N(C)[C@H](C(=O)N[C@H]1Cc3nc(cs3)-c3ccc4c(c3)c(c(-c3cccnc3[C@H](C)OC)n4CC)CC(C)(C)COC(=O)[C@@H]3CCCN(N3)C1=O)C(C)C)CC2 (atropisomer, axis not shown)	KRAS Q61H (Homo sapiens (Human), UniProt P01116+P62937, Q61H)	pIC50	7.00 to 8.00
C=CC(=O)N(C)[C@H]1CN(C(=O)N(C)[C@H](C(=O)N[C@H]2Cc3nc(cs3)-c3ccc4c(c3)c(c(-c3cccnc3[C@H](C)OC)n4CC)CC(C)(C)COC(=O)[C@@H]3CCCN(N3)C2=O)C(C)C)C[C@H]1F (atropisomer, axis not shown)	KRAS Q61H (Homo sapiens (Human), UniProt P01116+P62937, Q61H)	pIC50	7.00 to 8.00
C=CC(=O)N1CC[C@H](C(=O)N(C)[C@H](C(=O)N[C@H]2Cc3cccc(c3)-c3ccc4c(c3)c(c(-c3cccnc3[C@H](C)OC)n4CC)CC(C)(C)COC(=O)[C@@H]3CCCN(N3)C2=O)C(C)(C)F)C1 (atropisomer, axis not shown)	KRAS Q61H (Homo sapiens (Human), UniProt P01116+P62937, Q61H)	pIC50	5.00 to 6.00
C=CC(=O)N1CC[C@H](C(=O)N(C)[C@H](C(=O)N[C@H]2Cc3cc(O)cc(c3)-c3ccc4c(c3)c(c(-c3cnn5c3[C@@H](OC)CCC5)n4CC)CC(C)(C)COC(=O)[C@@H]3CCCN(N3)C2=O)C(C)C)C1 [Example A300]	KRAS Q61H (Homo sapiens (Human), UniProt P01116+P62937, Q61H)	pIC50	7.00 to 8.00
C=CC(=O)N1CC[C@H](C(=O)N2CCCCC[C@H]2C(=O)N[C@H]2Cc3cccc(c3)-c3ccc4c(c3)c(c(-c3cccnc3[C@H](C)OC)n4CC)CC(C)(C)COC(=O)[C@@H]3CCCN(N3)C2=O)C1 (atropisomer, axis not shown)	KRAS Q61H (Homo sapiens (Human), UniProt P01116+P62937, Q61H)	pIC50	5.00 to 6.00
C=CS(=O)(=O)N1CC[C@H](C(=O)N(C)[C@H](C(=O)N[C@H]2Cc3cc(O)cc(c3)-c3ccc4c(c3)c(c(-c3cncnc3)n4CC)CC(C)(C)COC(=O)[C@@H]3CCCN(N3)C2=O)C(C)C)C1	KRAS Q61H (Homo sapiens (Human), UniProt P01116+P62937, Q61H)	pIC50	6.00 to 7.00
C=CC(=O)N(C)CCN1CCN(C(=O)N(C)[C@H](C(=O)N[C@H]2Cc3cccc(c3)-c3ccc4c(c3)c(c(-c3cccnc3[C@H](C)OC)n4CC)CC(C)(C)COC(=O)[C@@H]3CCCN(N3)C2=O)C(C)C)C[C@@H]1C (atropisomer, axis not shown)	KRAS Q61H (Homo sapiens (Human), UniProt P01116+P62937, Q61H)	pIC50	6.00 to 7.00
C=CC(=O)N1CCOC2(CCN(C(=O)N(C)[C@H](C(=O)N[C@H]3Cc4nc(n(C)n4)-c4ccc5c(c4)c(c(-c4cccnc4[C@H](C)OC)n5CC(F)(F)F)CC(C)(C)COC(=O)[C@@H]4CCCN(N4)C3=O)C(C)C)CC2)C1 (atropisomer, axis not shown)	KRAS Q61H (Homo sapiens (Human), UniProt P01116+P62937, Q61H)	pIC50	7.00 to 8.00
CO[C@@H](C)c1ncccc1-c1c2c3cc(ccc3n1CC(F)(F)F)-c1nc(co1)C[C@H](NC(=O)[C@H](C(C)C)N(C)C(=O)C1(F)CCN(C(=O)C#CC(C)(C)N(C)C)CC1)C(=O)N1CCC[C@H](N1)C(=O)OCC(C)(C)C2 (atropisomer, axis not shown)	KRAS Q61H (Homo sapiens (Human), UniProt P01116+P62937, Q61H)	pIC50	7.00 to 8.00
C=CC(=O)N1CC[C@H](C(=O)N2CCCCC[C@H]2C(=O)N[C@H]2Cc3nc(cs3)-c3ccc4c(c3)c(c(-c3cccnc3[C@H](C)OC)n4CC)CC(C)(C)COC(=O)[C@@H]3CCCN(N3)C2=O)C1 (atropisomer, axis not shown)	KRAS Q61H (Homo sapiens (Human), UniProt P01116+P62937, Q61H)	pIC50	5.00 to 6.00
CC#CC(=O)N1CC[C@H](C(=O)N(C)[C@H](C(=O)N[C@H]2Cc3cccc(c3)-c3ccc4c(c3)c(c(-c3cccnc3[C@H](C)OC)n4C#N)CC(C)(C)COC(=O)[C@@H]3CCCN(N3)C2=O)C(C)C)C1 (atropisomer, axis not shown)	KRAS Q61H (Homo sapiens (Human), UniProt P01116+P62937, Q61H)	pIC50	< 5.00
